- assay.procedure: pKa of the acid
- Type: physicochemical
measured.parameter: pKa

Query: What does the record list as pKa for Cc1c(Cc2ccc3ccccc3n2)c2cc(F)ccc2n1CC(=O)O ?
Result: 2.8
